TARGET ENTITY: MCP-1 receptor B (CCR2B) (Homo sapiens)
Construct: expressed in transfected cells; host or cells: CHO-K1 (clone 7, CHO-CCR2B), membrane fragments
Sequence (P41597 1-360 isoform P41597-2): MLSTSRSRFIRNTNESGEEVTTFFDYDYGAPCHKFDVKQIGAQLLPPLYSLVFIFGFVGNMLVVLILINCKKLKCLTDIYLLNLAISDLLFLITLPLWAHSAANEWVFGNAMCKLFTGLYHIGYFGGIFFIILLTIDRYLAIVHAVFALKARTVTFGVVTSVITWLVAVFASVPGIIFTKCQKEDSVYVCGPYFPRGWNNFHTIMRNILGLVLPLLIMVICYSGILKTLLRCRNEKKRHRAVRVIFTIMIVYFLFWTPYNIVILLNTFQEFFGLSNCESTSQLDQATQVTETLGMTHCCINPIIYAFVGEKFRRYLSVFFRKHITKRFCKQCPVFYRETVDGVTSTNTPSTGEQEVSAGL
EXPERIMENT DESCRIPTION: hMCP-1 receptor binding assay (125I-MCP-1, CHO-CCR2B cell membranes)
TEST CONTEXT: competition with 100 pM labelled MCP-1, CHO-CCR2B membranes, 0.01-50 μM, duplicate eight point curves; read-out: IC50 in the hMCP-1 receptor binding assay
Source text: The MCP-1 receptor B (CCR2B) cDNA was cloned by PCR from THP-1 cell RNA using suitable oligonucleotide primers based on the published MCP-1 receptor sequences (Charo et al., 1994, Proc. Natl. Acad. Sci. USA, 91, 2752). The resulting PCR products were cloned into vector PCR-II™ (In Vitrogen, San Diego, Calif.). Error free CCR2B cDNA was subcloned as a Hind III-Not I fragment into the eukaryotic expression vector pCDNA3 (In Vitrogen) to generate pCDNA3/CC-CKR2A and pCDNA3/CCR2B respectively. […]
VALUE TYPE: IC50 (nM)
Return type: number; implicit unit nM.

Problem: State the recorded IC50 for this entry: O=C(O)COc1cccc2c1cc(C(=O)O)n2Cc1ccc(F)c(F)c1
Result: 2300

---

Tested on: THP-1 cells
EXPERIMENT DESCRIPTION: RANTES mediated chemotaxis
Assay type: cell-based
TEST CONTEXT: Homo sapiens, RANTES 2 nM, Calcein AM tagged cells
VALUE TYPE: pIC50
To interpret pIC50, take it as minus log10 of a concentration measured in moles per litre.

Problem: Which pIC50 value belongs to O=C(O)c1cc2c(OCCCO)cccc2n1Cc1ccc(Cl)c(Cl)c1 ?
Result: 5.44

Provenance of the data: patent US6569888B1
